IC50, TNFα cytotoxicity assay (WEHI-13VAR cells) by entry:
Target: tumor necrosis factor alpha (TNFα) (human, UniProt P01375 77-233)
Sequence (P01375 77-233 limits assumed): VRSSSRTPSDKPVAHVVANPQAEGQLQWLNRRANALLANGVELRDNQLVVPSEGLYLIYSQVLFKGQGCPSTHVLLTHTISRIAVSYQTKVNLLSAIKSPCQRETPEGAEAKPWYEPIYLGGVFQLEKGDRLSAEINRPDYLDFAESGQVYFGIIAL
Test: cell-based or functional assay
Measurement Kind: IC50, TNFα cytotoxicity assay (WEHI-13VAR cells) (nM)

| Binder | Reported Value |
| --- | --- |
| MAb 2006 (antibody, V domains shown, IgG1/kappa, CHO; also called H1831/L459) VH: EVQLVESGGGLIQPGGSLRLSCAVSGLNVSRDYMSWVRQAPGKGLEWISVIYRGGATHYADSVKGRFTISRDTSKNTVFLQMSRLKVADTAVYYCARNYYGSTLDYWGQGTLVTVSS VL: EIVLTQSPVTLSVPPGERASLSCRASQNIYTAVAWYQQKPGQAPRLLIYNASTRATGIPARFSGGGSGTDYTLTISSLESEDFAVYHCQQWHSWPLTFGGGTKLEIK | 0.3 |
| MAb 699 (antibody, V domains shown, also called 183 E9; H1273/L250) VH: EVQLLESGGGLIQPGGSLRLSCAASGFTVSSNYMSWVRQAPGKGLEWVSVIYSGGSTYYADSVKGRFTISRDNAKNTVYLQMNSLRSEDTAVYYCARNYYGSTYDYWGQGTLVTVSS VL: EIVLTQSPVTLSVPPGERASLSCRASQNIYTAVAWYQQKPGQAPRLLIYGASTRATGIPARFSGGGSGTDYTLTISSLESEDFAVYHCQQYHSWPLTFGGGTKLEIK | 350 |
| MAb 1714 (antibody, V domains shown, IgG1/kappa, CHO; also called H1678/L332) VH: EVQLVESGGGLIQPGGSLRLSCAVSGLNVSRDYMSWVRQAPGKGLEWISVIYRGGATMYADSVKGRFTISRDTSKNTVFLQMSRLKVADTAVYYCARNYYGSTFDYWGQGTLVTVSS VL: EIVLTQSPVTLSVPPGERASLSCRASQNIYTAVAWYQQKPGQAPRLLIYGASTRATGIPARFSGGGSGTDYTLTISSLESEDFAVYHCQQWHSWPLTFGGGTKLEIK | 1.3 |

Origin of values: patent US20080267974A1
